observation_type: melting point

Return reported melting point. Input compound: Cc1cc(C)c(Nc2nc(C)ncc2S(=O)(=O)c2ccc(C#N)cc2)c(C)c1 [Example 22] 258 to 260 °C

Return reported melting point. Input compound: Cc1cc(C)c(Nc2nc(C)ncc2S(=O)(=O)c2ccc(-c3ncccn3)cc2)c(C)c1 [Example 25] 215 to 217 °C

Return reported melting point. Input compound: Cc1cc(C)c(Nc2nc(C)ncc2S(=O)(=O)c2ccc(-c3ncc[nH]3)cc2)c(C)c1 [Example 30] 282 to 284 °C

Return reported melting point. Input compound: Cc1cc(C)c(Nc2nc(N(C)C)ncc2S(=O)(=O)c2cccc(OCc3ccccc3)c2)c(C)c1 [Example 9] 52 to 58 °C

Return reported melting point. Input compound: Cc1cc(C)c(Nc2nc(C)ncc2S(=O)(=O)c2ccc(C3=NCCN3)cc2)c(C)c1 [Example 29] 240 to 242 °C

Return reported melting point. Input compound: Cc1cc(C)c(Nc2nc(C)ncc2S(=O)(=O)c2ccc(-c3cncnc3)cc2)c(C)c1 [Example 24] 210 to 212 °C

Okay, here is my list. What is melting point for each of these?
1. Cc1cc(C)c(Nc2nc(C)ncc2S(=O)(=O)c2ccc(NCc3ccccc3)cc2)c(C)c1 [Example 20]
2. Cc1ccc(S(=O)(=O)c2cnc(C)nc2Nc2c(C)cc(C)cc2C)cc1 [Example 23]

1. 200 to 202 °C
2. 202 to 204 °C
